Record type: Ki measurement. Applies to: Carbonic anhydrase 1 (Homo sapiens, UniProt P00915)
readout.name: Ki (nM)

Sample answers from the record:
>  <compound>
CN(CC(=O)NNc1ccc(S(N)(=O)=O)cc1)C(=N)N

>  <data.value>
20800

$$$$
>  <compound>
NCC(=O)NCC(=O)NCCC(=O)Nc1nnc(S(N)(=O)=O)s1

>  <data.value>
21

$$$$
>  <compound>
NCC(=O)NCC(=O)Nc1ccc(S(N)(=O)=O)cc1I

>  <data.value>
590

$$$$

[P] CN(CC(=O)NS(=O)(=O)c1ccc(CO)cc1)C(=N)N
[Q] Cn1nc(S(N)(=O)=O)s/c1=N\C(=O)CN
[R] CN(CC(=O)Nc1ccc(S(=O)(=O)/N=c2\sc(S(N)(=O)=O)nn2C)cc1)C(=N)N
[S] NCC(=O)NCC(=O)Nc1c(S(N)(=O)=O)cc(S(N)(=O)=O)c(Cl)c1Cl
[T] NCC(=O)NCC(=O)NNc1ccc(S(N)(=O)=O)cc1
// query Rank items: key Ki, increasing. Give the labels in the order specified.
// result R, Q, S, P, T

====

readout.name: kin (h⁻¹)

Sample answers from the record:
>  <compound>
NCC(=O)NCC(=O)Nc1ccc(S(=O)(=O)Nc2nnc(S(N)(=O)=O)s2)cc1

>  <kin / h⁻¹>
2

$$$$
>  <compound>
NCC(=O)NCC(=O)NS(=O)(=O)c1nc2ccc(OCCO)cc2s1

>  <kin / h⁻¹>
3.1

$$$$
>  <compound>
NCC(=O)Nc1ccc(S(=O)(=O)Nc2nnc(S(N)(=O)=O)s2)cc1

>  <kin / h⁻¹>
3.1

$$$$
>  <compound>
NCC(=O)NCC(=O)Nc1c(S(N)(=O)=O)cc(S(N)(=O)=O)c(Cl)c1Cl

>  <kin / h⁻¹>
4.8

$$$$
>  <compound>
CN(CC(=O)NCCC(=O)Nc1nnc(S(N)(=O)=O)s1)C(=N)N

>  <kin / h⁻¹>
4.7

$$$$
>  <compound>
CCNC1CC(C)S(=O)(=O)c2sc(S(=O)(=O)NC(=O)CNC)cc21 (stereo not drawn)

>  <kin / h⁻¹>
3.9

$$$$

[A] CNCC(=O)Nc1cc(Cl)c(S(N)(=O)=O)cc1S(N)(=O)=O
[B] CC(=O)/N=c1/sc(S(N)(=O)=O)nn1C [METHAZOLAMIDE]
// query Compare A and B and name the one whose reported kin is smaller. Please reply using the label of the selected record.
// result B
(B: 1.9 h⁻¹, A: 4.6 h⁻¹)

====

Record type: pKi measurement. Applies to: UniProtKB Q95323
Sequence (Q95323 whole entry): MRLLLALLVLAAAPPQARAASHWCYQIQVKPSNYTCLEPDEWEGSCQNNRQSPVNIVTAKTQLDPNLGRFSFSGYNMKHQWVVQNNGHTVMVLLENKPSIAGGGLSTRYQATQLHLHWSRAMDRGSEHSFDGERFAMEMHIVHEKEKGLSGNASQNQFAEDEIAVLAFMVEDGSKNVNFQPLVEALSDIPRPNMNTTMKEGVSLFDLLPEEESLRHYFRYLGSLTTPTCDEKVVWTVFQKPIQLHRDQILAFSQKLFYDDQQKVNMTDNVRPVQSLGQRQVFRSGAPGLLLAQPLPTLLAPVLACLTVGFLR
pKi: −log10 of the molar value.
readout.name: pKi

>  <smiles.str>
NCC(=O)Nc1c(S(N)(=O)=O)cc(S(N)(=O)=O)c(Cl)c1Cl

>  <pKi>
7.21

$$$$
>  <smiles.str>
NCC(=O)Nc1ccc(S(=O)(=O)Nc2ccc(S(N)(=O)=O)cc2)cc1

>  <pKi>
7.07

$$$$
>  <smiles.str>
NCC(=O)Nc1nccc(Nc2ccc(S(N)(=O)=O)cc2)n1

>  <pKi>
7.12

$$$$
>  <smiles.str>
NCC(=O)Nc1ccc(S(N)(=O)=O)cc1I

>  <pKi>
7.13

$$$$
>  <smiles.str>
NCC(=O)NCC(=O)NS(=O)(=O)c1ccc(CCO)cc1

>  <pKi>
6.82

$$$$
>  <smiles.str>
CNCC(=O)Nc1ccc(S(=O)(=O)Nc2cccc(S(N)(=O)=O)c2)cc1

>  <pKi>
7.21

$$$$
>  <smiles.str>
CN(CC(=O)Nc1ccc(S(N)(=O)=O)cc1Br)C(=N)N

>  <pKi>
7.21

$$$$
>  <smiles.str>
NCC(=O)NS(=O)(=O)c1ccc(CCO)cc1

>  <pKi>
6.81

$$$$
>  <smiles.str>
CNCC(=O)Nc1ccc(S(N)(=O)=O)cc1

>  <pKi>
6.84

$$$$

[A] NCC(=O)NCC(=O)NS(=O)(=O)c1ccc(CO)cc1
[B] CNCC(=O)Nc1ccc(S(=O)(=O)Nc2ccc(S(N)(=O)=O)cc2)cc1
// query Compare A and B and name the one whose reported pKi is smaller. Please reply using the label of the selected record.
// result A

====

Record type: Ki measurement. Applies to: UniProt P00915
readout.name: Ki (nM)

Sample answers from the record:
>  <compound>
CN(CC(=O)Nc1ccc(S(=O)(=O)Nc2ccc(S(N)(=O)=O)cc2)cc1)C(=N)N

>  <assayed.system>
UniProt P00915

>  <Ki [nM]>
46

$$$$
>  <compound>
CNCC(=O)Nc1ccc(S(=O)(=O)/N=c2\sc(S(N)(=O)=O)nn2C)cc1

>  <assayed.system>
UniProt P00915

>  <Ki [nM]>
11

$$$$
>  <compound>
NCC(=O)Nc1ccc(S(N)(=O)=O)cc1Cl

>  <assayed.system>
UniProt P00915

>  <Ki [nM]>
600

$$$$
>  <compound>
CNCC(=O)NS(=O)(=O)c1nc2ccc(OCCO)cc2s1

>  <assayed.system>
UniProt P00915

>  <Ki [nM]>
10

$$$$
>  <compound>
NCC(=O)NS(=O)(=O)c1ccc(CCO)cc1

>  <assayed.system>
UniProt P00915

>  <Ki [nM]>
1700

$$$$
>  <compound>
CN(CC(=O)NS(=O)(=O)c1nc2ccc(O)cc2s1)C(=N)N

>  <assayed.system>
UniProt P00915

>  <Ki [nM]>
11

$$$$
>  <compound>
NCC(=O)Nc1ccccc1S(N)(=O)=O

>  <assayed.system>
UniProt P00915

>  <Ki [nM]>
25000

$$$$
>  <compound>
CNCC(=O)Nc1ccc2nc(S(N)(=O)=O)sc2c1

>  <assayed.system>
UniProt P00915

>  <Ki [nM]>
10

$$$$

[a] CNCC(=O)NS(=O)(=O)c1ccc(CCO)cc1
[b] NCC(=O)NCC(=O)Nc1ccc(S(=O)(=O)Nc2ccc(S(N)(=O)=O)cc2)cc1
// query Could you please tell me which of these two has the higher Ki: a or b ? Please reply using the label of the selected record.
// result a

[1] CN(CC(=O)NCc1ccc(S(N)(=O)=O)cc1)C(=N)N
[2] CCN(C(=O)CN)C1CC(C)S(=O)(=O)c2sc(S(N)(=O)=O)cc21 (stereo not drawn)
// query Could you please tell me which of these two has the higher Ki: 1 or 2 ? Please reply using the label of the selected record.
// result 1
(1: 950 nM, 2: 98 nM)

====

pKi: −log10 of the molar value.
Record type: pKi measurement. Applies to: Carbonic anhydrase 1 (Homo sapiens)
readout.name: pKi

>  <compound>
CN(CC(=O)Nc1ccc(S(N)(=O)=O)cc1I)C(=N)N

>  <pKi>
6.26

$$$$
>  <compound>
CNCC(=O)NCCc1ccc(S(N)(=O)=O)cc1

>  <pKi>
6.09

$$$$

[1] NCC(=O)NCC(=O)NS(=O)(=O)c1nc2ccc(OCCO)cc2s1
[2] CN(CC(=O)Nc1cc(Cl)c(S(N)(=O)=O)cc1S(N)(=O)=O)C(=N)N
[3] NCC(=O)Nc1ccc(S(N)(=O)=O)cc1I
// query Rank items: key pKi, increasing. Give the labels in the order specified.
// result 3, 2, 1

[I] NCC(=O)NCC(=O)Nc1ccc2nc(S(N)(=O)=O)sc2c1
[II] CNCC(=O)Nc1cccc(S(N)(=O)=O)c1
[III] CNCC(=O)NS(=O)(=O)c1ccc(CO)cc1
// query Rank items: key pKi, increasing. Give the labels in the order specified.
// result II, III, I
(II: 4.78, III: 5.82, I: 7.80)

[I] CCNC1CC(C)S(=O)(=O)c2sc(S(=O)(=O)NC(=O)CNC)cc21 (stereo unspecified)
[II] CN(CC(=O)NS(=O)(=O)c1ccc(CCO)cc1)C(=N)N
[III] CNCC(=O)/N=c1\sc(S(N)(=O)=O)nn1C
// query Arrange these compounds by their pKi, starting with the largest number. Give the labels in the order specified.
// result I, III, II

[1] NCC(=O)NS(=O)(=O)c1nc2ccc(OCCO)cc2s1
[2] CNCC(=O)Nc1ccc(S(=O)(=O)Nc2ccc(S(N)(=O)=O)cc2)cc1
// query Compare 1 and 2 and name the one whose reported pKi is smaller. Please reply using the label of the selected record.
// result 2

====

Record type: Ki measurement. Applies to: Carbonic anhydrase 1 (Homo sapiens, UniProt P00915)
readout.name: Ki (nM)

Sample answers from the record:
>  <smiles.str>
NCC(=O)NCCC(=O)Nc1nnc(S(N)(=O)=O)s1

>  <readout.name>
Ki

>  <data.value>
21

$$$$
>  <smiles.str>
NCC(=O)NCC(=O)NS(=O)(=O)c1nc2ccc(O)cc2s1

>  <readout.name>
Ki

>  <data.value>
12

$$$$
>  <smiles.str>
NCC(=O)Nc1ccc(S(N)(=O)=O)cc1F

>  <readout.name>
Ki

>  <data.value>
540

$$$$
>  <smiles.str>
CN(CC(=O)Nc1cccc(S(N)(=O)=O)c1)C(=N)N

>  <readout.name>
Ki

>  <data.value>
16200

$$$$
>  <smiles.str>
NCC(=O)NCCc1ccc(S(N)(=O)=O)cc1

>  <readout.name>
Ki

>  <data.value>
850

$$$$
>  <smiles.str>
CNCC(=O)NCCC(=O)Nc1nnc(S(N)(=O)=O)s1

>  <readout.name>
Ki

>  <data.value>
21

$$$$
>  <smiles.str>
CN(CC(=O)Nc1ccc(S(=O)(=O)Nc2cccc(S(N)(=O)=O)c2)cc1)C(=N)N

>  <readout.name>
Ki

>  <data.value>
45

$$$$
>  <smiles.str>
CN(CC(=O)Nc1ccc(S(N)(=O)=O)cc1Cl)C(=N)N

>  <readout.name>
Ki

>  <data.value>
510

$$$$
>  <smiles.str>
NCC(=O)NCc1ccc(S(N)(=O)=O)cc1

>  <readout.name>
Ki

>  <data.value>
1400

$$$$
>  <smiles.str>
CN(CC(=O)Nc1ccc(S(N)(=O)=O)cc1F)C(=N)N

>  <readout.name>
Ki

>  <data.value>
510

$$$$

[I] NCC(=O)NCC(=O)Nc1ccc(S(N)(=O)=O)cc1F
[II] NCC(=O)NCC(=O)Nc1cccc(S(N)(=O)=O)c1
[III] CN(CC(=O)Nc1ccc(S(=O)(=O)Nc2nnc(S(N)(=O)=O)s2)cc1)C(=N)N
// query Rank items: key Ki, increasing. Give the labels in the order specified.
// result III, I, II
